target: GLP-1R (Homo sapiens); construct: host or cells: GLP-1R CRE-bla CHO-K1 cells; test: EC20 GLP-1(9-36) PAM cAMP assay: dose response of compound in the presence of fixed concentration of GLP-1(9-36); assay type: cell-based; details: dose response of compound in presence of fixed concentration of GLP-1(9-36), GLP-1R CRE-bla CHO-K1 cells, read-out: EC20 GLP-1(9-36) PAM EC50
Sequence (P43220 24-463): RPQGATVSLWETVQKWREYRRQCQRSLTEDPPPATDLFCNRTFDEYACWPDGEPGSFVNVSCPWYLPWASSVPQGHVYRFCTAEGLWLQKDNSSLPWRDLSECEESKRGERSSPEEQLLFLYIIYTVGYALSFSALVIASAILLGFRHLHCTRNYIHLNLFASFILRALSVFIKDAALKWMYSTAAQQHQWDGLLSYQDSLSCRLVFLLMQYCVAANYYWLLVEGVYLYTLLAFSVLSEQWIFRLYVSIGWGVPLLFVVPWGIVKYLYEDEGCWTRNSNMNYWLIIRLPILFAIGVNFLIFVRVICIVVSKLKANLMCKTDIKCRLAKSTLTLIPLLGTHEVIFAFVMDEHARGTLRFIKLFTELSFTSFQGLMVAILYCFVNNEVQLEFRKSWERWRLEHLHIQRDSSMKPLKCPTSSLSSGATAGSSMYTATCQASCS
Sequence (P01275 100-127 partner limits assumed): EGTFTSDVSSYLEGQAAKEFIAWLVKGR
pEC50: −log10 of the molar value.
Metric name: pEC50

Observe how each entry below is paired with its result.
CCCCCCCOc1ccc(-c2cnc(-c3ccc(C[C@H](NC(=O)c4ccc(C(C)(C)C)cc4)C(=O)N4CCC(O)C(C(=O)O)C4)cc3)nc2)cc1 (stereo partly drawn) ... > 6.10
CC(C)(C)c1ccc(C(=O)N[C@@H](Cc2ccc(-c3ncc(-c4ccc(OCCC5CCCC5)cc4)cn3)cc2)C(=O)NC(C(=O)O)C(O)c2ccccc2)s1 (stereo partly drawn) ... 5.30 to 5.60
CCCCCCCOc1ccc(-c2cnc(-c3ccc(C[C@H](NC(=O)c4ccc(C(C)(C)C)s4)C(=O)N[C@H](C(=O)O)[C@H](O)c4ccccc4)cc3)nc2)cc1 ... > 6.10
CCCCCCCOc1ccc(-c2cnc(-c3ccc(C[C@H](NC(=O)c4ccc(C(C)(C)C)s4)C(=O)NC(C(=O)O)C(O)c4cccnc4)cc3)nc2)cc1 (stereo partly drawn) ... 5.60 to 6.10
CCCCCCCOc1ccc(-c2cnc(-c3ccc(C[C@H](NC(=O)/C=C/c4ccc(OC)cc4)C(=O)N[C@H](C)C(=O)O)cc3)nc2)cc1 ... 5.30 to 5.60

## Input Reported pEC50, molecule CCCCCCCOc1ccc(-c2cnc(-c3ccc(C[C@H](NC(=O)c4ccc(C(C)(C)C)s4)C(=O)NC(C(=O)O)C(O)c4ncccn4)cc3)nc2)cc1 (stereo partly drawn) : ____
## Output > 6.10
